Measured values drawn from patent US6723753B2 for this set.

# Tested On: CETP (Homo sapiens)
# Sequence (P11597 18-493): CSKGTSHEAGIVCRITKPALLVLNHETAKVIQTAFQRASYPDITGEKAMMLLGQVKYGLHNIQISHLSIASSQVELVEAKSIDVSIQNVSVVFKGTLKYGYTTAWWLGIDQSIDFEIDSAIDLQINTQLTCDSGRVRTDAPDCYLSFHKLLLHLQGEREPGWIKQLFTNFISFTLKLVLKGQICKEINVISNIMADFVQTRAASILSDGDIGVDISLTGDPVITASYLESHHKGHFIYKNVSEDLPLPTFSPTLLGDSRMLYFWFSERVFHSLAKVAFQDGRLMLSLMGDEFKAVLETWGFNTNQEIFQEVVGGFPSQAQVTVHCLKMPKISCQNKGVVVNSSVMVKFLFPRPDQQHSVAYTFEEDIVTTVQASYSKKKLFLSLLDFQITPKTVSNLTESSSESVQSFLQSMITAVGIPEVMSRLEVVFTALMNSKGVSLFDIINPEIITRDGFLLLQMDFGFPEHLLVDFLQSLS
# Experiment Notes: Assay of CETP Inhibition using Purified Components (Reconstituted Buffer Assay)
# Format: biochemical
# Design: made in house; host or cells: CHO cells (serum-free conditioned medium)
# Applied Conditions: Inhibition of CETP activity in reconstituted buffer assay; transfer of [3H]CE from HDL to LDL; read-out: IC50
Experimental Readout: IC50 (µM)

Guide cases for IC50, answers given:
# Molecule, IC50 (µM)
rows = [
    ("OC(CN(Cc1cccc(OC(F)(F)C(F)F)c1)c1cccc(-c2ccc(Cl)cc2)c1)C(F)(F)F (stereo not shown)", 1.5),
    ("OC(CN(Cc1ccc(C(F)(F)F)cc1)c1ccc(F)c(C(F)(F)F)c1)C(F)(F)F (stereo not shown)", 7),
    ("O=C1c2ccccc2C(=O)c2cc(CN(CC(O)C(F)(F)F)c3cccc(OC(F)(F)F)c3)ccc21 (stereo not shown)", 70),
    ("OC(COC(F)(F)C(F)F)CN(Cc1cccc(OC(F)(F)F)c1)Cc1cccc(OC(F)(F)F)c1 (stereo not shown)", 6),
    ("OC(CN(Cc1cccc(OC(F)(F)C(F)F)c1)c1cccc(OCc2cc(F)cc(F)c2)c1)C(F)(F)F (stereo not shown)", 0.2),
    ("OC(CN(Cc1cccc(OC(F)(F)F)c1)c1ccc2c(c1)Cc1ccccc1-2)C(F)(F)F (stereo not shown) [compound 699]", 1.5),
]

A: COc1cc(N(Cc2cccc(OC(F)(F)F)c2)CC(O)C(F)(F)F)cc(OC)c1OC (stereo not shown)
B: OC(CN(Cc1ccc(C(F)(F)F)cc1)c1cccc(Oc2ccccc2)c1)C(F)(F)F (stereo not shown)
Which value of IC50 is numerically greater: that of A or that of B ? Respond using the label that marks the chosen record.
A

I: CN(C(=O)c1cccc(N(Cc2cccc(OC(F)(F)C(F)F)c2)CC(O)C(F)(F)F)c1)c1ccccc1 (stereo not shown)
II: OC(CN(Cc1cccc(OC(F)(F)C(F)F)c1)c1ccc(-c2ccccc2)cc1)C(F)(F)F (stereo not shown)
III: OC(CN(Cc1cccc(OCc2ccccc2)c1)c1cccc(OC(F)(F)F)c1)C(F)(F)F (stereo not shown)
IV: N#Cc1cccc(N(Cc2cccc(OC(F)(F)C(F)F)c2)CC(O)C(F)(F)F)c1 (stereo not shown)
List items by IC50 in falling order. A ranking is expressed here by listing the labels in the requested order.
I, III, IV, II
